# System: SFRP-1 (Homo sapiens)
# Procedure details: Cell-based assay for in vitro measurement of SFRP-1/SARP2 antagonist activity (U2OS cells co-transfected with 16x TCF-tk-Luciferase reporter, Wnt and hSFRP-1)
# Experimental context: U2OS, read-out: Fold Induction with SFRP-1, Conc 15 μM; with SFRP-1; fold induction over SFRP-1 control, single dose
Tag: yes (1) if measured fold induction at 15 µM is not below 2, no (0) if it is.

[[record]]
compound = "CC(C)c1ccc(S(=O)(=O)c2ccc(F)cc2)cc1S(=O)(=O)NCCn1ccnc1 [Example 318]"
group_label = "yes (1)"

[[record]]
compound = "Cc1ccc(S(=O)(=O)c2ccccc2)cc1S(=O)(=O)NC1CCN(S(=O)(=O)c2cccs2)CC1 [Example 482]"
group_label = "yes (1)"

[[record]]
compound = "Cc1ccc(S(=O)(=O)c2ccc(F)cc2)cc1S(=O)(=O)NCCCN(C)C [Example 174]"
group_label = "yes (1)"

[[record]]
compound = "COc1ccc(Br)cc1CCNS(=O)(=O)c1cc(S(=O)(=O)c2ccc(F)cc2)ccc1C [Example 30]"
group_label = "yes (1)"

[[record]]
compound = "Cc1ccc(S(=O)(=O)c2ccccc2)cc1S(=O)(=O)NCCN1CCOCC1 [Example 211]"
group_label = "yes (1)"

[[record]]
compound = "CC(C)c1ccc(S(=O)(=O)c2ccc(F)cc2)cc1S(=O)(=O)NC[C@@H](C)c1ccccc1 [Example 444]"
group_label = "no (0)"

[[record]]
compound = "C#CCN(CCc1ccccc1F)S(=O)(=O)c1cc(S(=O)(=O)c2ccc(C)cc2)ccc1C [Example 277]"
group_label = "no (0)"

[[record]]
compound = "COc1ccc(S(=O)(=O)c2ccccc2)cc1S(=O)(=O)NCCc1cccc(F)c1 [Example 155]"
group_label = "no (0)"


###

Entries and their fold induction at 15 µM values follow.
# System: SFRP-1 (Homo sapiens, UniProt Q8N474)
# Sequence (Q8N474 32-314): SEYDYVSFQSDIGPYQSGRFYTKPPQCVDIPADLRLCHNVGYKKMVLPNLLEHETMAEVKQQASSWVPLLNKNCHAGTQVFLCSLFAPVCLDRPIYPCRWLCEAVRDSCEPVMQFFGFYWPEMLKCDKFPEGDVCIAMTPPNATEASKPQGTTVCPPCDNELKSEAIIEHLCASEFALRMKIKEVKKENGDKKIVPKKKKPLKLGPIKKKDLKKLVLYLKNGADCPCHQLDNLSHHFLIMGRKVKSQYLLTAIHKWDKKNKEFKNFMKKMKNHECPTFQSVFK
# Procedure details: Cell-based assay for in vitro measurement of SFRP-1/SARP2 antagonist activity (U2OS cells co-transfected with 16x TCF-tk-Luciferase reporter, Wnt and hSFRP-1);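 note: U2OS cells co-transfected with a TCF-tk luciferase reporter, a Wnt vector, hSFRP-1 or empty vector and CMV-βgal, luciferase luminescence read in cell lysates alongside βgal activity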
# Experimental context: U2OS, read-out: Fold Induction with SFRP-1, Conc 15 μM; with SFRP-1; fold induction over SFRP-1 control, single dose
Quantity name: fold induction at 15 µM

[[record]]
compound = "CC(C)(C)c1ccc(S(=O)(=O)c2ccccc2)cc1S(=O)(=O)NCCc1ccccn1 [Example 461]"
observed_value = 1.7

[[record]]
compound = "Cc1ccc(S(=O)(=O)c2ccc(F)cc2)cc1S(=O)(=O)NCCc1ccncc1 [Example 165]"
observed_value = 3.3

[[record]]
compound = "Cc1cc(S(=O)(=O)c2ccccc2)cc(S(=O)(=O)NC2CCOCC2)c1C [Example 350]"
observed_value = 1.8

[[record]]
compound = "Cc1ccc(S(=O)(=O)c2ccc(N3CCOCC3)cc2)cc1S(=O)(=O)NCCCn1ccnc1 [Example 313]"
observed_value = 1.9

[[record]]
compound = "CC[C@H](C)[C@@H](CO)Nc1ccc(S(=O)(=O)c2ccc(C)c(S(=O)(=O)NCCCn3ccnc3)c2)cc1 [Example 354]"
observed_value = 2.6

[[record]]
compound = "Cc1ccc(S(=O)(=O)c2ccc(NC3CCOCC3)cc2)cc1S(=O)(=O)NCCCn1ccnc1 [Example 366]"
observed_value = 2.4

[[record]]
compound = "CCc1ccc(S(=O)(=O)c2ccccc2)cc1S(=O)(=O)NCCc1cccc(F)c1 [Example 146]"
observed_value = 2.1

[[record]]
compound = "CCN(C)c1ccc(S(=O)(=O)c2ccc(C)c(S(=O)(=O)NCCCn3ccnc3)c2)cc1 [Example 304]"
observed_value = 1.7

[[record]]
compound = "CC(C)c1ccc(S(=O)(=O)c2cccc(Cl)c2)cc1S(=O)(=O)NCCc1ccccn1 [Example 455]"
observed_value = 3.2

[[record]]
compound = "COc1ccc(S(=O)(=O)c2ccccc2)cc1S(=O)(=O)NCCCN(C)C [Example 239]"
observed_value = 1.2

[[record]]
compound = "Cc1ccc(S(=O)(=O)c2ccccc2)cc1S(=O)(=O)NCCCn1ccnc1 [Example 219]"
observed_value = 3

[[record]]
compound = "Cc1ccc(S(=O)(=O)c2ccc(F)cc2)cc1S(=O)(=O)NCCCN1CCOCC1 [Example 163]"
observed_value = 2

[[record]]
compound = "Cc1ccc(S(=O)(=O)c2ccccc2)cc1S(=O)(=O)NC1CCN(Cc2ccccc2)C1 (stereo not drawn) [Example 414]"
observed_value = 2

[[record]]
compound = "Cc1ccc(S(=O)(=O)c2ccccc2)cc1S(=O)(=O)NCCCN1CCOCC1 [Example 206]"
observed_value = 2.2

[[record]]
compound = "Cc1ccc(S(=O)(=O)c2ccc(C(C)(C)C)cc2)cc1S(=O)(=O)NCCc1ccccn1 [Example 438]"
observed_value = 1.6

[[record]]
compound = "CC[C@H](C)C(CO)Nc1ccc(S(=O)(=O)c2ccc(C(C)C)c(S(=O)(=O)NCCn3ccnc3)c2)cc1 (stereo partly drawn) [Example 453]"
observed_value = 4

[[record]]
compound = "Cc1ccc(S(=O)(=O)c2ccccc2)cc1S(=O)(=O)NC1CCN(C(=O)OC(C)(C)C)CC1 [Example 446]"
observed_value = 2.3

[[record]]
compound = "O=S(=O)(NCCCn1ccnc1)c1cc(S(=O)(=O)c2ccccc2)ccc1Cl [Example 336]"
observed_value = 2.8

[[record]]
compound = "CCC(CC)NS(=O)(=O)c1cc(S(=O)(=O)c2ccccc2)ccc1C [Example 397]"
observed_value = 1.2

[[record]]
compound = "COC(=O)[C@@H](Cc1ccccc1)NS(=O)(=O)c1cc(S(=O)(=O)c2ccccc2)ccc1C [Example 365]"
observed_value = 1.3

[[record]]
compound = "C[C@H](CNS(=O)(=O)c1cccc(S(=O)(=O)c2ccccc2)c1)c1ccccc1 [Example 263]"
observed_value = 0.8

[[record]]
compound = "Cc1ccc(S(=O)(=O)c2ccc(F)cc2)cc1S(=O)(=O)NCCC1CCCN1C (stereo not drawn) [Example 164]"
observed_value = 1.9

[[record]]
compound = "Cc1cc(C)c(S(=O)(=O)c2ccccc2)cc1S(=O)(=O)NCC(O)c1ccccc1 (stereo not drawn) [Example 389]"
observed_value = 1.5

[[record]]
compound = "CC(C)c1ccc(S(=O)(=O)c2ccc(NCCC#N)cc2)cc1S(=O)(=O)NCCn1ccnc1 [Example 450]"
observed_value = 4

[[record]]
compound = "COc1cccc(S(=O)(=O)c2ccc(C)c(S(=O)(=O)NCCc3ccccn3)c2)c1OC [Example 422]"
observed_value = 1.9

[[record]]
compound = "Cc1cc(S(=O)(=O)c2ccccc2)cc(S(=O)(=O)NCCCn2ccnc2)c1C [Example 348]"
observed_value = 2.5

[[record]]
compound = "Cc1ccc(S(=O)(=O)c2ccccc2)cc1S(=O)(=O)N(C)CCc1ccccc1 [Example 278]"
observed_value = 1

